Species on record: Gallus gallus
Test: Number of chicks cleared of eimeria tenella lesions out of a group of 5 when given in the diet at 50 p.p.m.
Assay type: functional
Measurement Type: No. of chicks

Reference set, count: 4
CSc1ncnc2c1cnn2C1O[C@H](CO)[C@@H](O)[C@H]1O (stereo not given in full)	2
CCCCCSc1ncnc2c1cnn2C1O[C@H](CO)[C@@H](O)[C@H]1O (stereo not given in full)	0
C=CCSc1ncnc2c1cnn2C1O[C@H](CO)[C@@H](O)[C@H]1O (stereo not given in full)	2
CCSc1ncnc2c1cnn2C1O[C@H](CO)[C@@H](O)[C@H]1O (stereo not given in full)	5

Identify measured No. of chicks corresponding to CCCCCCSc1ncnc2c1cnn2C1O[C@H](CO)[C@@H](O)[C@H]1O (stereo not given in full)
0
